# System: DNA
# procedure-details: Binding affinity to calf thymus DNA assessed as change in melting temperature at a compound to DNA molar ratio of 1:5 at pH 7 by thermal denaturation assay
# Assay type: nucleic-acid assay
# experimental-conditions: Bos taurus
experimental-readout: ΔTm (°C)
// note: answer is a bare numeric in °C

Problem: ΔTm for `COc1cc2c(cc1OCCCCOc1cc3c(cc1OC)C(=O)N1CC(F)(F)C[C@H]1C=N3)N=C[C@@H]1CC(F)(F)CN1C2=O` ?
Solution: 4.2

Problem: Try the compound `COc1cc2c(cc1OCCCN1CCN(CCCOc3cc4c(cc3OC)C(=O)N3CC(F)(F)C[C@H]3C=N4)CC1)N=C[C@@H]1CC(F)(F)CN1C2=O`
Solution: 11

Problem: Try the compound `COc1cc2c(cc1OCCCCCOc1cc3c(cc1OC)C(=O)N1CC(F)(F)C[C@H]1C=N3)N=C[C@@H]1CC(F)(F)CN1C2=O`
Solution: 18.9

Problem: Try the compound `C=C1C[C@H]2C=Nc3cc(OCCCOc4cc5c(cc4OC)C(=O)N4CC(=C)C[C@H]4C=N5)c(OC)cc3C(=O)N2C1`
Solution: 25.7

Problem: Try the compound `COc1cc2c(cc1OCCCCN1CCN(CCCCOc3cc4c(cc3OC)C(=O)N3CC(F)(F)C[C@H]3C=N4)CC1)N=C[C@@H]1CC(F)(F)CN1C2=O`
Solution: 14

====

# Tested on: DNA
# procedure-details: Binding affinity to calf thymus DNA assessed as change in melting temperature at a compound to DNA molar ratio of 1:5 at pH 7 by thermal denaturation assay
# Format: nucleic-acid assay
# experimental-conditions: Bos taurus
experimental-readout: ΔTm (°C)
// note: answer is a bare numeric in °C

Problem: ΔTm for `COc1cc2c(cc1OCCCCCN1CCN(CCCCCOc3cc4c(cc3OC)C(=O)N3CC(F)(F)C[C@H]3C=N4)CC1)N=C[C@@H]1CC(F)(F)CN1C2=O` ?
Solution: 13

Problem: Try the compound `COc1cc2c(cc1OCCCOc1cc3c(cc1OC)C(=O)N1CCC[C@H]1C=N3)N=C[C@@H]1CCCN1C2=O`
Solution: 10.2

Problem: Try the compound `COc1cc2c(cc1OCCCOc1cc3c(cc1OC)C(=O)N1CC(F)(F)C[C@H]1C=N3)N=C[C@@H]1CC(F)(F)CN1C2=O`
Solution: 13.1

Problem: Try the compound COc1cc2c(cc1OCCCN1CCN(CCCOc3cc4c(cc3OC)C(=O)N3CC(F)C[C@H]3C=N4)CC1)N=C[C@@H]1CC(F)CN1C2=O (some centres not stated)
Solution: 37

Problem: Try the compound COc1cc2c(cc1OCCCCCN1CCN(CCCCCOc3cc4c(cc3OC)C(=O)N3CC(F)C[C@H]3C=N4)CC1)N=C[C@@H]1CC(F)CN1C2=O (some centres not stated)
Solution: 37

Problem: Try the compound `COc1cc2c(cc1OCCCN1CCN(CCCOc3cc4c(cc3OC)C(=O)N3CC(=C(F)F)C[C@H]3C=N4)CC1)N=C[C@@H]1CC(=C(F)F)CN1C2=O`
Solution: 28.9

Problem: Try the compound COc1cc2c(cc1OCCCCN1CCN(CCCCOc3cc4c(cc3OC)C(=O)N3CC(F)C[C@H]3C=N4)CC1)N=C[C@@H]1CC(F)CN1C2=O (some centres not stated)
Solution: 38
